condition: human gut metagenome, 24 h, 2 µM; further: call rule not given here
readout-label: Bacterial Biotransformation

Reference set (8 entries):
> print(dat)
                                   compound                test.value
1  CN(C)CCC=C1c2ccccc2COc2ccccc21 [DOXEPIN]  Compound NOT metabolized
2   COc1ccc(/C=C/C(=O)Nc2ccccc2C(=O)O)cc1OC  Compound NOT metabolized
3  CCN(C)C(=O)Oc1cccc([C@H](C)N(C)C)c1.O=C(O)C(O)C(O)C(=O)O [RIVASTIGMINE TARTRATE]  Compound NOT metabolized
4         CCN(CC)CCOC(=O)C1(C2CCCCC2)CCCCC1  Compound NOT metabolized
5  CC(C)(C)NC[C@H](O)COc1nsnc1N1CCOCC1.O=C(O)/C=C\C(=O)O [TIMOLOL MALEATE]  Compound NOT metabolized
6  O=C(CCCN1CCC2(CC1)C(=O)NCN2c1ccccc1)c1ccc(F)cc1  Compound NOT metabolized
7  COCCCC/C(=N\OCCN)c1ccc(C(F)(F)F)cc1.O=C(O)/C=C\C(=O)O [FLUVOXAMINE MALEATE]  Compound NOT metabolized
8  CCOC(=O)C1=C(C)NC(C)=C(C(=O)OC)C1c1cccc([N+](=O)[O-])c1 (centres undefined)      Compound metabolized

Continue with the next compound.
Identify Bacterial Biotransformation associated with the compound CC(=O)OCC(=O)NCCCOc1cccc(CN2CCCCC2)c1 [ROXATIDINE ACETATE]
Compound metabolized
